Target: Sialic acid-binding Ig-like lectin 9 (Homo sapiens)
Assay: Hs-Siglec9 ALPHAscreen SOP 20170721
Parameters: scale not given: direction of the effect not stated beside the values
Settings: 10 µM
observationType: Percent Effect (%)
Provide the reading as a plain figure in %.

Under Sialic acid-binding Ig-like lectin 9 (Homo sapiens): report Percent Effect of c1ccc(-c2ncc(CNC3CCc4ncnn4C3)cn2)cc1 (configuration not stated) .
-1.35

Under Sialic acid-binding Ig-like lectin 9 (Homo sapiens): report Percent Effect of CCc1nc(CN(Cc2cccs2)CC2CCCO2)no1 (configuration not stated) .
0.0835

Under Sialic acid-binding Ig-like lectin 9 (Homo sapiens): report Percent Effect of CC(C)c1noc(CCCC(=O)NC2CCS(=O)(=O)C2)n1 (configuration not stated) .
-4.53

Under Sialic acid-binding Ig-like lectin 9 (Homo sapiens): report Percent Effect of Cc1nc(C)c(C(=O)NCCNc2ncccc2C#N)s1 .
1.1

Under Sialic acid-binding Ig-like lectin 9 (Homo sapiens): report Percent Effect of CN(C)c1cc(C(=O)N2CCCC(n3cccn3)C2)ccn1 (configuration not stated) .
3.76

Under Sialic acid-binding Ig-like lectin 9 (Homo sapiens): report Percent Effect of O=C(O)[C@@H]1CN(C(=O)c2cc(C3CC3)n[nH]2)C[C@H]1c1cccc(F)c1 .
7.52

Under Sialic acid-binding Ig-like lectin 9 (Homo sapiens): report Percent Effect of COc1c(CNCc2ccc(CN(C)C)cc2)c(C(C)C)nn1C .
1.34

Under Sialic acid-binding Ig-like lectin 9 (Homo sapiens): report Percent Effect of CCn1cc(N)c(C(=O)NCc2cnn(C)c2)n1 .
0.256

Under Sialic acid-binding Ig-like lectin 9 (Homo sapiens): report Percent Effect of Cc1ccc(C)c(CNC(=O)NC(C)(C(=O)O)c2ccco2)c1 (configuration not stated) .
12.2

Under Sialic acid-binding Ig-like lectin 9 (Homo sapiens): report Percent Effect of CNC(=O)c1cccc(NC(=O)CN2CCN(S(C)(=O)=O)CC2)c1 .
18.5

Under Sialic acid-binding Ig-like lectin 9 (Homo sapiens): report Percent Effect of CN(Cc1cnn(C)c1)C(=O)NC1CCC(O)CC1 (configuration not stated) .
15.8

Under Sialic acid-binding Ig-like lectin 9 (Homo sapiens): report Percent Effect of Cc1noc(C2CCN(C(=O)CN(C)c3ccc(Cl)cn3)CC2)n1 .
-5.03

Under Sialic acid-binding Ig-like lectin 9 (Homo sapiens): report Percent Effect of CC(=O)N1CCCN(C(=O)CCc2c(C)noc2C)CC1 .
-3.87

Under Sialic acid-binding Ig-like lectin 9 (Homo sapiens): report Percent Effect of Cc1ccccc1C(=O)N1CCC(n2nnc3cc(F)ccc32)CC1 .
0.882

Under Sialic acid-binding Ig-like lectin 9 (Homo sapiens): report Percent Effect of CC1(C)CN(C(=O)NCCc2ccn(-c3ccccc3)n2)CCO1 .
11.9

Under Sialic acid-binding Ig-like lectin 9 (Homo sapiens): report Percent Effect of CCCS(=O)(=O)N1CCN(c2cc(-n3nc(C)cc3C)nc(C)n2)CC1 .
1.6

Under Sialic acid-binding Ig-like lectin 9 (Homo sapiens): report Percent Effect of Cc1ccc(Cl)cc1N1CCC(CNC(=O)CCn2ccnn2)C1 (configuration not stated) .
-5.81

Under Sialic acid-binding Ig-like lectin 9 (Homo sapiens): report Percent Effect of Cc1ccc(S(=O)(=O)N2C[C@@H]3C[C@@H](NC(=O)C(C)(C)C)[C@@H]3C2)cc1 .
4.69

Under Sialic acid-binding Ig-like lectin 9 (Homo sapiens): report Percent Effect of CN1CCN(Cc2cn3c(n2)CN(C(=O)N2CCOCC2)CC3)CC1 .
22.1

Under Sialic acid-binding Ig-like lectin 9 (Homo sapiens): report Percent Effect of CCCn1nc2c(cc1=O)CN(CC(=O)Nc1ccncc1)CC2 .
6.89

Under Sialic acid-binding Ig-like lectin 9 (Homo sapiens): report Percent Effect of CS(=O)(=O)N1Cc2ccccc2C2(CCN(C(=O)c3ccno3)CC2)C1 .
-5.73

Under Sialic acid-binding Ig-like lectin 9 (Homo sapiens): report Percent Effect of Cn1cc(CN2C[C@@H]3CN(Cc4ccoc4)CCO[C@@H]3C2)cn1 .
0.861

Under Sialic acid-binding Ig-like lectin 9 (Homo sapiens): report Percent Effect of COCCNC(=O)c1cc(S(=O)(=O)N2CCCCC2)cs1 .
-4.58

Under Sialic acid-binding Ig-like lectin 9 (Homo sapiens): report Percent Effect of Cc1ccccc1CC(=O)N(C)C1CCN(c2ccccn2)CC1 .
3.6

Under Sialic acid-binding Ig-like lectin 9 (Homo sapiens): report Percent Effect of CCN(CC)CCNc1ncc(-c2cc(C)no2)c(-c2ccoc2C)n1 .
3.2

Under Sialic acid-binding Ig-like lectin 9 (Homo sapiens): report Percent Effect of Cn1cc(N2CC3(COCCN(Cc4ccsc4)C3)OCC2=O)cn1 (configuration not stated) .
10.7

Under Sialic acid-binding Ig-like lectin 9 (Homo sapiens): report Percent Effect of CCC1CCCCCN1C(=O)c1nnc2ccccc2c1N (configuration not stated) .
-3.48

Under Sialic acid-binding Ig-like lectin 9 (Homo sapiens): report Percent Effect of O=C(c1ccno1)N1CCC2(CC1)C(=O)N(CC1CC1)c1ccccc12 .
-1.46

Under Sialic acid-binding Ig-like lectin 9 (Homo sapiens): report Percent Effect of COCc1nc(C(=O)NS(=O)(=O)c2cc(F)ccc2F)cs1 .
-5.81

Under Sialic acid-binding Ig-like lectin 9 (Homo sapiens): report Percent Effect of Fc1cccc(-c2nc(CN3CCCCC3Cn3cncn3)co2)c1 (configuration not stated) .
1.08

Under Sialic acid-binding Ig-like lectin 9 (Homo sapiens): report Percent Effect of O=C(NCCN1CCOCC1)NCC(O)c1cccc(F)c1 (configuration not stated) .
13.6

Under Sialic acid-binding Ig-like lectin 9 (Homo sapiens): report Percent Effect of O=C(c1cnccn1)N1CCCC2(COCCN(CC3CC3)C2)C1 (configuration not stated) .
-5.88

Under Sialic acid-binding Ig-like lectin 9 (Homo sapiens): report Percent Effect of Cc1cccn2cc(CC(=O)N3CCCC(n4cncn4)C3)nc12 (configuration not stated) .
-8.4

Under Sialic acid-binding Ig-like lectin 9 (Homo sapiens): report Percent Effect of COCCO[C@H]1CCN(C(=O)C2CCOCC2)[C@H]1Cc1ccncc1 .
-6.51

Under Sialic acid-binding Ig-like lectin 9 (Homo sapiens): report Percent Effect of CSc1cccc(CNC(=O)C2CC(=O)N(CCN(C)C)C2)c1 (configuration not stated) .
4.4

Under Sialic acid-binding Ig-like lectin 9 (Homo sapiens): report Percent Effect of Cc1ccc(C(=O)NC(CN2CCCC2=O)c2ccccc2)c(=O)[nH]1 (configuration not stated) .
17.4

Under Sialic acid-binding Ig-like lectin 9 (Homo sapiens): report Percent Effect of Cc1noc(CN2CCOC(CN(C)C)C2)n1 (configuration not stated) .
-4.95

Under Sialic acid-binding Ig-like lectin 9 (Homo sapiens): report Percent Effect of CC(C)N1CC(C(=O)NCc2ccnc(-n3cccn3)c2)CC1=O (configuration not stated) .
-8.26

Under Sialic acid-binding Ig-like lectin 9 (Homo sapiens): report Percent Effect of COc1ccc(NC(=O)Cn2nc(C)c(C)cc2=O)cc1OC .
23.4

Under Sialic acid-binding Ig-like lectin 9 (Homo sapiens): report Percent Effect of CC(C)c1cc(NC(=O)CN2CCC(N3CCNC3=O)CC2)on1 .
8.63

Under Sialic acid-binding Ig-like lectin 9 (Homo sapiens): report Percent Effect of Cc1noc(C)c1CCC(=O)N1CCCN(Cc2cscn2)CC1 .
-4.5

Under Sialic acid-binding Ig-like lectin 9 (Homo sapiens): report Percent Effect of Cc1ccc2cc(C3(O)CCN(C(=O)CN4CCCC4)CC3)ccc2n1 .
-0.537

Under Sialic acid-binding Ig-like lectin 9 (Homo sapiens): report Percent Effect of COc1cccc2c1ccn2CCC(=O)NCCCC(=O)O .
-4.11

Under Sialic acid-binding Ig-like lectin 9 (Homo sapiens): report Percent Effect of O=C(NCc1cc[nH]n1)N(CCCO)C1CCc2ccccc21 (configuration not stated) .
-0.45

Under Sialic acid-binding Ig-like lectin 9 (Homo sapiens): report Percent Effect of CC(=O)N(Cc1noc(C2CC2)n1)C1CCN(Cc2ccncc2)C1 (configuration not stated) .
-20.1

Under Sialic acid-binding Ig-like lectin 9 (Homo sapiens): report Percent Effect of CC1CN(CC(=O)NC2CCCC2)CCN1c1ccc2nncn2n1 (configuration not stated) .
1.41

Under Sialic acid-binding Ig-like lectin 9 (Homo sapiens): report Percent Effect of Cc1ccc(CNC(=O)N2CCN(Cc3ccsc3)CC2)n1C .
-1.44
